Hey, just so you know, these numbers are from ChEMBL document CHEMBL1130341.

Test protocol: Activity ratio versus Probucol in lipid peroxidation
Assay type: functional
The entries below are paired with their reported Ratio.
Give only the figure.

Some solved cases for reference:
line_notation=COc1cc(NC(=O)c2cc3cc(O)ccc3[nH]2)cc(OC)c1OC measured=3.8
line_notation=COc1ccc2c(c1)cc(C(=O)N(C)c1ccccc1)n2C measured=0.02

`Oc1ccc2[nH]c3c(c2c1)CCCCCC3` has a reported Ratio of 2

Summary for this compound, `CCCCCCCCN(C(=O)c1cc2cc(SCC)ccc2[nH]1)c1ccccc1` : Ratio is 0.03

For this compound ( `Cn1c(C(=O)N2CCN(C(c3ccc(F)cc3)c3ccc(F)cc3)CC2)cc2cc(O)ccc21` ), measured Ratio is 5

Per the records, this compound ( `CCCCCCN(C(=O)c1cc2cc(O)ccc2n1C)c1ccccc1` ) has Ratio equal to 5

According to the records, this compound `CN(C(=O)c1cc2cc(O)ccc2n1C)c1cccc(Br)c1` displays Ratio of 2.5

Just so you know, measured Ratio for `CN(C(=O)c1cc2cc(O)ccc2n1C)c1cccc(C(F)(F)F)c1` came out at 0.5

Consider `O=C(Nc1ccccc1)c1cc2cc(O)ccc2[nH]1` . Its measured Ratio is 3
